Measured values drawn from ChEMBL document CHEMBL4118079 for this set.

# experimentalTarget: Pyruvate kinase PKM (Homo sapiens)
# runDescription: Inhibition of recombinant human N-terminal His-tagged PKM2 expressed in Escherichia coli BL21 preincubated for 15 mins followed by PEP/NADH addition measured at 30 secs interval for 3 to 6 mins by fluorescent PK-LDH assay
pIC50: −log10 of the molar value.
outcomeMeasure: pIC50

Example entries begin here.
[[record]]
samplesmiles = "CC1=C(SC(=S)N2CCOCC2)C(=O)c2ccccc2C1=O"
readoutnumber = 5.07

[[record]]
samplesmiles = "CC1=C(CSC(=S)N(C)C2CCCCC2)C(=O)c2ccccc2C1=O"
readoutnumber = 5.29

[[record]]
samplesmiles = "CCN(CC)C(=S)SCC1=CC(=O)c2ccccc2C1=O"
readoutnumber = 5.59

[[record]]
samplesmiles = "CCCN(CCC)C(=S)SCC1=C(C)C(=O)c2ccccc2C1=O"
readoutnumber = 5.17

[[record]]
samplesmiles = "CC1=C(CSC(=S)N2CCSC2)C(=O)c2ccccc2C1=O"
readoutnumber = 5.28


[P] CC1=C(CSC(=S)NCc2ccccc2)C(=O)c2ccccc2C1=O
[Q] CCCN(CCC)C(=S)SCc1cc(OC)c2ccccc2c1OC
[R] CC1=C(CSC(=S)N2CCSCC2)C(=O)c2ccccc2C1=O
Request: Task for the reader: rank each entry by its pIC50, from the minimum upward. Hello, could you send the labels back in the order asked? Thank you.
Result: Q, R, P

----------
The following compounds are shown together with reported selectivity ratio values.
# runDescription: Selectivity index, ratio of IC50 for human BEAS2B cells to IC50 for human NCI-H1299 cells
# Format: toxicity
# experimentalParameters: BEAS2B cells and NCI-H1299 cells, read-out: Ratio IC50
Give the figure by itself; no unit, no explanation.

[[record]]
samplesmiles = "CCN(CC)C(=S)SCC1=C(C)C(=O)c2ccccc2C1=O"
readoutnumber = 17

[[record]]
samplesmiles = "CC(C)=CC[C@@H](O)C1=CC(=O)c2c(O)ccc(O)c2C1=O"
readoutnumber = 2.9

[[record]]
samplesmiles = "CC1=C(CSC(=S)N2CCCCC2)C(=O)c2ccccc2C1=O"
readoutnumber = 11.8

[[record]]
samplesmiles = "O=C1C=C(CSC(=S)N2CCCCC2)C(=O)c2ccccc21"
readoutnumber = 9.4


Entry "CC1=C(CSC(=S)N2CCSCC2)C(=O)c2ccccc2C1=O" ; selectivity ratio = 8.6

----------
# experimentalTarget: Pyruvate kinase PKM (Homo sapiens, UniProt P14618)
# Sequence (P14618 whole entry): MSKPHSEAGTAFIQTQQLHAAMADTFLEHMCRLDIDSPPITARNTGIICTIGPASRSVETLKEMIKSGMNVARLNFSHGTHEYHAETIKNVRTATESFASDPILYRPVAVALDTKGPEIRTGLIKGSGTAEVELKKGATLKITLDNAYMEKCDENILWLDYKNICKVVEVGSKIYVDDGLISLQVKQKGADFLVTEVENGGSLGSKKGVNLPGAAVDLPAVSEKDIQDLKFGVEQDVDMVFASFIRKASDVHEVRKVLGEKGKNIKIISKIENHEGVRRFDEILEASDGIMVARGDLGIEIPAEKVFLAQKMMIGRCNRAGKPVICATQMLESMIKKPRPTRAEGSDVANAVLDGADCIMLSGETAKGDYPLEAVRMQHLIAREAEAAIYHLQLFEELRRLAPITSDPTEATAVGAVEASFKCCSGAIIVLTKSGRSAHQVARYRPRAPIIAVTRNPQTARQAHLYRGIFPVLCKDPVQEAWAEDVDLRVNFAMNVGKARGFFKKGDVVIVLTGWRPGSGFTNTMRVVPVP
# runDescription: Inhibition of recombinant human N-terminal His-tagged PKM2 expressed in Escherichia coli BL21 preincubated for 15 mins followed by PEP/NADH addition measured at 30 secs interval for 3 to 6 mins by fluorescent PK-LDH assay
outcomeMeasure: IC50 (µM)

Example entries begin here.
[[record]]
molecule = "CCCN(CCC)C(=S)SC1=C(C)C(=O)c2ccccc2C1=O"
readoutnumber = 9.98

[[record]]
molecule = "O=C1C=C(CSC(=S)N2CCN(c3ccccc3)CC2)C(=O)c2ccccc21"
readoutnumber = 1.4

[[record]]
molecule = "O=C1C=C(CSC(=S)N2CCCCC2)C(=O)c2ccccc21"
readoutnumber = 1.74

[[record]]
molecule = "CC1=C(CSC(=S)N2CC(C)OC(C)C2)C(=O)c2ccccc2C1=O (stereo not given)"
readoutnumber = 11.7

[[record]]
molecule = "CCN(CC)C(=S)SCC1=C(C)C(=O)c2ccccc2C1=O"
readoutnumber = 8.78

[[record]]
molecule = "O=C1C=C(CSC(=S)N2CCOCC2)C(=O)c2ccccc21"
readoutnumber = 4.23

[[record]]
molecule = "CCCCN(CCCC)C(=S)SCC1=C(C)C(=O)c2ccccc2C1=O"
readoutnumber = 4.57

[[record]]
molecule = "CC1=C(CSC(=S)N2CCOCC2)C(=O)c2ccccc2C1=O"
readoutnumber = 15.2

[[record]]
molecule = "CC1=C(CSC(=S)N2CCN(C)CC2)C(=O)c2ccccc2C1=O"
readoutnumber = 14.2


[I] CC1=C(CSC(=S)N2CCCC2)C(=O)c2ccccc2C1=O
[II] CC1=C(SC(=S)N2CCCCC2)C(=O)c2ccccc2C1=O
Request: Select one: I or II . Criterion: greater recorded IC50. Answer by quoting the chosen item's label.
Result: I
(I: 19.7 µM, II: 4.93 µM)
